Taken from the supplement of paper PMC6555819.

Below, each entry is listed alongside its reported PBM binding z-score.
tested on: RXRa DBDmut IVT, anti-RXR (DBD mutation: RXRa K156A/R161A, NR concentration 90 nM); experiment: PBM binding z-score (relative to random genomic background probes); higher = stronger binding; sequences stand for … in GC…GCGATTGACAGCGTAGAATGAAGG

CONSTRUCT_SEQUENCE	PBM binding z-score
ATCGAAAGGTCGAGGTGAGTATGGAGAAAGGGAA	0.698
CCGACTGGGGCAAAGGTTACCTTACTCAGTACGA	0.0718
TTACCAAGGTGAAGGTCGTTGAACCCTCTGTAGA	0.243
AATACAGGGTCTTCGTAGGCCAGAGTACGCACAG	0.168
CCTGTTAGTTGACCATAAGGGCAACCGAAGCTCG	0.329
CCTGCTAGGTCAATGGACAGCTAAAGCAGCTCGC	1.5
AGAATTAGGTTATTAAGATCAGGGAATTGCGGTC	0.599
CCTAGTTGGTCAAGTTCACACACGCTATAGGTAC	3.31
ACTTACGGGTCAACGAGGCTATAGCACGCGTATA	2.15
ACTAGCAGGCCGAGTTTGGGTCACTCAAACAAAG	-0.134
CAAACTAGGTCACCGGAAGGTCAAAGACCGCATG	1.49
CCTGCTAGGTCATGGCCAGCTAATCTACAGTATG	1.3

----------
tested on: THRa:RXRa (NR concentration 90 nM, RXRa partner concentration 90 nM); assay: PBM binding z-score (relative to random genomic background probes); higher = stronger binding; sequences stand for … in GC…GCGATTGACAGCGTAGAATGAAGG
Below, each entry is listed alongside its reported PBM binding z-score.

CONSTRUCT_SEQUENCE	PBM binding z-score
ACTTCCGGGTCAACGAGGTTATAGCACGCGTATA	4.34
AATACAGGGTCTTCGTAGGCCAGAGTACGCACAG	1.6
ACTAGCAGGCCAAGTTTGAGTCACTCAAACAAAG	-0.188
CCTCGGAGGACAGAAGGTCTGAGCTGTCCGCTTT	-0.0206
CCTACTGGGCCACGGTCATTGATCAGTCAAAGCA	0.204
TTACCAAGGTGAAAGGTCGTTGACGCACGCCTTG	3.34
ACAGACAGGTGAGTGAAGGTATCTCAGCTGGACG	-0.00206
CCTAGTTGGTCAAGGTCACAAACGCTATAGGTAC	4
GCTAGCAGGCCATTTGGGTCAATCAATGACGGGC	1.87
CGTCCAACGTCAAAGGTCAGTGAAGAGATGACGG	2.5
CGAGCTAGGTCATTGACAGGACAGTGAATAGTAA	2.7
CCGACTGGGGCATAAGGTTTCCATAAGCCAGCCC	-7.82e-06

----------
Below, each entry is listed alongside its reported PBM binding z-score.
tested on: PXR homodimer (NR concentration 270 nM); assay: PBM binding z-score (relative to random genomic background probes); higher = stronger binding; sequences stand for … in GC…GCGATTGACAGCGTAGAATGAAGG

CONSTRUCT_SEQUENCE	PBM binding z-score
AGAATGAGGTTAAGATCAGGCAAACAGAATACAT	-0.00329
TAGCCTACGTCATTCAGGGGCCAGTATAGAAAGC	-0.62
CCTGGTTGGTCAGGAGGTCACACACCGGATATGA	0.67
GCTATTAATTGAAAGGGCAACCGAATGATTCTCG	1.04
CCTACTGGGCTATTCAGAGGTCATTGATCATATG	2.27
CCTGCTAGGTCAATGGGCAGCTAAAGCAGCTCGC	-0.589
TCTCGGAGGACACGAAGTTCAGAGCTTTCCAGAG	2.87
ATATGTAGGCTACATCCGGGTCATTCAGGCTATG	1.04
TCGAGCAGGTTAGTCGGGGCATTCAGCCAACATA	-0.131
GCTAGTTGGTCAGTAAAAGGTCGCACACCGGTCG	-0.218
CGTCCAAGGTCATAGGAGCTCAGTGAAGACAGAT	1.07
TCTTCTAGATCAACAGGAGGTTAAGAAAGATCGA	0.113
TAGCCTAGGTCATGGGACAGTATACCACGCGAAC	-0.252
AATACAGGGTCATCGTAGCCCAGAGTACGCACAG	0.552
TCATATAGGTAATACAGGTGAAATTCGGCATCTA	0.431
CCGACTGGGGAAGAAAGGTTACCATACCATCCGG	-0.0818
GATACAGGGTCAGCTAGCGGCCAGAGTATGGAAA	-0.651
CCTCGGAGGACAACAGGAGGTCAGAGCCGCCAGA	0.183
GATACAGGGTCACGGCCAGAGTACGCGTATTGAT	0.0972
GCATATAGGTAATACAAGGTGAACGTCCGATTGT	0.124
CCTAGCAGGCCAGAGTCACTCAAGCATTTCGCTT	-0.709
AGTCAAAGTTCAGGAGGAGGTAACGTAAAGCACG	1.96
AGAATCAGGTTACCAAAGATCAGGGAAACGCTTG	-0.0157
CGAATTAGGTCATTGACAGGACAGTGAATAGTAA	0.55
CAAACTAGGTCACGAAAGGTCAAAGGCGAATGAC	2.45
CAAACTAGGTCACCGGAAGGTCAAGGTCCGCATG	1.49
CCAGACAGGTCAAAGGTAACTCAGTCTGGTACGC	0.483
AGTCAAAGTTCAGGACGTGGTAACGTAAAGCACG	0.643
ACTATTAGTTGACTTAGGGCAACAGATACGACGC	0.123
TCTTGTCGATCAAAGGTTAAGAAAGCCGAAGCCT	-0.394
ATCTCTAGGTAAGACTCAGTTCAGTCAAGAACGC	1.41
CAAACTAGGTCACGAAAGGTCGAAGTCGAATGAC	1
TTACCCAGGTGAAAGGTCGTTGATGCACGCCTTG	0.742
ATCTCTAGGTAACCAAGTTCAGTGGATGCCGAAC	1.5
ACTTACGGGTCACCGAGGTTATAGCACGCGTATA	3.25
CCAGACAGGTGAGACGGTAACTCAGCCTCGATTA	0.193
AGAATGACGTTATTAAGATCAGGGAATTGCGGTC	-0.378
CCTACTGGGCCATCAGGTCATTGAGATCAACGTT	2.14
GCTGCTAGGTCAACCGATGGTCAGCTAAAGCTCG	-0.956
CGTCCAAGGTCAGAGAGGTCAGGGAATGCCGAGT	10.6
ACTAGCAGGCAAAGTTTGGGTCACTCAAACAAAG	-0.439
GGAACGAGGGCAGTCGAGTTGATAGCATGGCGAT	-0.252
GCTAGCAGGCCATTTGGGTCACTCAGTGACGGGC	-0.321
TCGAGTAGGTTAGTGGGGGCATTCAGCCAACATA	1.78
GCTAGCAGGCCAATTGGGTCACTCAATGACGGGC	-0.704
TAATATAGGTAAACAGGTGAAAGTCCGTAAGTTA	0.586
CCTACTGGGCCATCAGGTCATTGTTATCAACGTT	0.409
TCATATAGGTACACAGGTGAAAGTCCGTAAGTTA	0.981
GCGAGTTGGTCAGTAAAAGGTCACACACCGGTCG	1.31
CCTAGTTGGTCAGGAGGTCGCACACCGGATATGA	0.681
CGTCCAAGGTCATAGGAGGTCAGTGTAGACAGAT	3.78

----------
test system: PPARg:RXRa 90nM:30nM, anti-RXR (NR concentration 90 nM, RXRa partner concentration 30 nM); assay: PBM binding z-score (relative to random genomic background probes); higher = stronger binding; sequences stand for … in GC…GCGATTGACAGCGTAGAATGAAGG

CONSTRUCT_SEQUENCE	PBM binding z-score
TCTAGTTAGTCACGGAGGTCACACACGACGGGTA	3.22
AGAACGAGGGCAAAGAGTTGATAGCACGGGTGGC	1.55
ATCACTAGGTAAGACTCAGTTCAGTGAAGAACGC	0.0779
TTACCAAGGTGAAGGTCATTGATCCCTCTGTAGA	5.38
TCATTTAGGTAAAGGTGAAAGTCGAACGATATGA	4.9
TCTCGCAGGCCAGAGGGTCACTCAAGAGGTACGG	1.91
GTACCAAGGTGAATTGGTCGTTGATGAGTAGGCG	-0.112
TTACCATGGTGAAGGTCGTTGATCCCTCTGTAGA	2.44
CCTTACGGGTCAAGGTTCTAGCACGGGTGGTACG	4.24
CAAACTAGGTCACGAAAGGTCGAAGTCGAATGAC	8.11
CATACAGGGTCAGCTAGGCCAAAGTAGGGACGGC	1.85
CCGACTGGGGCCTAAGGTTACCATAAGCCAGCCC	1.11
CCTATTAGTTGACCATAAGGGCAACCGAAGCTCG	1.03
AGAACGAGGGCAATGAGTTGATAGCCCGGGTGGC	0.416
TAGCCTAGTTCATTGGGCCAGTATAGTACGCATC	0.253
CTACCAAGGTGAATAAGGTCGTTGATTACTATTC	0.602
TCGAGTAGGTTAGTAGGGGCATTCAGCCAACATA	1.35
CATACTGGGTCAGCTAGGCCAGAGTAGGGACGGC	2.06
CCAGACAGGTGAAAGGCAACTCAGTCTGGTACGC	2.8
CAAACTAGGTCACGAAAGGTCAAAGTCGAATGAC	8.74
CCTTCTGGGCCACGAAAGGTCATTGATTCAGTGA	3.94
